target: CD38 (Homo sapiens)
Construct: recombinant CD38 (reCD38)
Sequence (P28907 whole entry): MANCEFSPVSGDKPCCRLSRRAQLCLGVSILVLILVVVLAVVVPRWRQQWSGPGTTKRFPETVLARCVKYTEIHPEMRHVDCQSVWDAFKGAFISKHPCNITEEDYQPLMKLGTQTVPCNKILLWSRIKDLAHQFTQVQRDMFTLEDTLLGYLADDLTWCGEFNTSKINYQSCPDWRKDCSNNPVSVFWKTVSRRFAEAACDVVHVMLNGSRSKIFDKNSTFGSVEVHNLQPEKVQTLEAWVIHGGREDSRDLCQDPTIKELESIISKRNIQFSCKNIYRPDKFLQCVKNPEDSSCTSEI
measurementProtocol: inhibition of recombinant CD38 enzyme activity (Figure S5H)
pIC50: −log10 of the molar value.
experimentalReadout: pIC50

Lookup: Please list pIC50 recorded for the molecule NC(=O)c1ccc[n+]([C@@H]2O[C@H](COP(O)(O)=S)[C@@H](O)[C@@H]2F)c1
Found: ~5.00
